All figures here come from ChEMBL document CHEMBL3137667.

details: human;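 further: human cholestatic liver injury, shown by histopathology or by peak ALT or AST elevation over alkaline phosphatase ratio below 2, value counts indexed literature reports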
MEASUREMENT_NAME: Hepatotoxicity (choleostasis)
I'd appreciate a reply containing only the number, no unit.

Ask | Look up Hepatotoxicity (choleostasis) of CNC1CCCN(c2c(F)cc3c(=O)c(C(=O)O)cn(C4CC4)c3c2OC)C1 (stereo not drawn) and report it.
Reply | 0

Ask | Look up Hepatotoxicity (choleostasis) of `COc1cccc(OC)c1C(=O)N[C@@H]1C(=O)N2[C@@H]1SC(C)(C)[C@@H]2C(=O)O` and report it.
Reply | 0

Ask | Look up Hepatotoxicity (choleostasis) of `CCN1CCN(C(=O)N[C@@H](C(=O)N[C@@H]2C(=O)N3C(C(=O)O)=C(CSc4nnnn4C)CS[C@H]23)c2ccc(O)cc2)C(=O)C1=O` and report it.
Reply | 0

Ask | Look up Hepatotoxicity (choleostasis) of `Cc1ccc(Cl)c(Nc2ccccc2C(=O)O)c1Cl` and report it.
Reply | 0

Ask | Look up Hepatotoxicity (choleostasis) of `CC(C)(C)C(=O)OCOC(=O)[C@@H]1N2C(=O)[C@@H](NC(=O)[C@H](N)c3ccccc3)[C@H]2SC1(C)C` and report it.
Reply | 0

Ask | Look up Hepatotoxicity (choleostasis) of `C[C@@H]1O[C@@H]1P(=O)(O)O` and report it.
Reply | 0

Ask | Look up Hepatotoxicity (choleostasis) of `COc1cc(C)c(/C=C/C(C)=C/C=C/C(C)=C/C(=O)O)c(C)c1C` and report it.
Reply | 1

Ask | Look up Hepatotoxicity (choleostasis) of `Nc1ccc(/N=N/c2ccccc2)c(N)n1` and report it.
Reply | 2

Ask | Look up Hepatotoxicity (choleostasis) of `CO[C@@H]1O[C@H](CO)[C@H](O)[C@H](O[C@@H]2O[C@@H](C(=O)O)[C@@H](OC)[C@H](O)[C@H]2O)[C@H]1NC(C)=O` and report it.
Reply | 0

Ask | Look up Hepatotoxicity (choleostasis) of `CC(=O)N[C@@H]1[C@H](Oc2c3cc4cc2Oc2ccc(cc2Cl)[C@@H](O[C@@H]2O[C@@H](CO)[C@@H](O)[C@H](O)[C@@H]2NC(C)=O)[C@@H]2NC(=O)[C@H](NC(=O)[C@@H]4NC(=O)[C@H]4NC(=O)[C@@H](Cc5ccc(c(Cl)c5)O3)NC(=O)[C@H](N)c3ccc(O)c(c3)Oc3cc(O)cc4c3)c3ccc(O)c(c3)-c3c(O[C@H]4O[C@H](CO)[C@@H](O)[C@@H](O)[C@@H]4O)cc(O)cc3[C@@H](C(=O)O)NC2=O)O[C@@H](CO)[C@@H](O)[C@@H]1O` and report it.
Reply | 1

Ask | Look up Hepatotoxicity (choleostasis) of `O=C(O)C(=O)O` and report it.
Reply | 0

Ask | Look up Hepatotoxicity (choleostasis) of COC(=O)C(c1ccccc1)C1CCCCN1 (stereo not drawn) [METHYLPHENIDATE] and report it.
Reply | 0

Ask | Look up Hepatotoxicity (choleostasis) of `CO[C@H]1/C=C/O[C@@]2(C)Oc3c(C)c(O)c4c(O)c(c(/C=N/N5CCN(C)CC5)c(O)c4c3C2=O)NC(=O)/C(C)=C\C=C\[C@H](C)[C@H](O)[C@@H](C)[C@@H](O)[C@@H](C)[C@H](OC(C)=O)[C@@H]1C` and report it.
Reply | 19
